Tested on: Rattus norvegicus
Assay: Maximal change in rat mean arterial blood pressure after 20 mg/kg p.o.
Type: functional
Conditions: route oral
Simple rule here: Change less than -50% is Satisfied, otherwise Not satisfied.

1) CC1(C)Oc2ccsc2[C@@H](N2CCCC2=O)[C@@H]1O : Satisfied
2) CC1(C)Oc2cc(C#N)sc2[C@@H](N2CCCC2=O)[C@@H]1O : Satisfied
3) COC(=O)c1cc2c(s1)[C@@H](N1CCCC1=O)[C@H](O)C(C)(C)O2 : Not satisfied
4) CC1(C)Oc2cc(C(=O)C(F)(F)F)sc2[C@@H](N2CCCC2=O)[C@@H]1O : Satisfied
5) CC1(C)Oc2cc(C(N)=O)sc2[C@@H](N2CCCCC2=O)[C@@H]1O : Satisfied
6) Cc1cc2c(s1)[C@@H](N1CCCC1=O)[C@H](O)C(C)(C)O2 : Not satisfied
7) COC(=O)c1cc2c(s1)[C@@H](N1CCCCC1=O)[C@H](O)C(C)(C)O2 : Not satisfied
8) CC1(C)Oc2ccsc2[C@@H](N2CCCCC2=O)[C@@H]1O : Satisfied
9) CC1(C)Oc2cc(Br)sc2[C@@H](N2CCCC2=O)[C@@H]1O : Not satisfied
10) CC1(C)Oc2cc([N+](=O)[O-])sc2[C@@H](N2Cc3ccccc3C2=O)[C@@H]1O : Satisfied
11) CC(=O)c1cc2c(s1)[C@@H](N1CCCCC1=O)[C@H](O)C(C)(C)O2 : Satisfied

----------
Test system: Rattus norvegicus
Assay: Maximal change in rat mean arterial blood pressure after 20 mg/kg p.o.
Format: functional
Settings: route oral
Simple rule here: Change less than -10% is true (1), otherwise false (0).

1) CC1(C)Oc2cc(C(=O)OCc3ccccc3)sc2[C@@H](N2CCCC2=O)[C@@H]1O : true (1)
2) CC1(C)C=C(N2CCCCC2=O)c2sc([N+](=O)[O-])cc2O1 : false (0)
3) CC1(C)Oc2cc([N+](=O)[O-])sc2[C@@H](N2CCCC2=O)[C@@H]1O : true (1)
4) CC1(C)C=C(N2CCCCC2)c2sc([N+](=O)[O-])cc2O1 : true (1)
5) CC1(C)C=C(n2ccccc2=O)c2sc([N+](=O)[O-])cc2O1 : true (1)
6) CC1(C)Oc2cc(Br)sc2[C@@H](N2CCCCC2=O)[C@@H]1O : true (1)
7) CC1(C)Oc2cc([N+](=O)[O-])sc2[C@@H](N2CCCCC2=O)[C@@H]1O (stereo in doubt; 32) : true (1)
8) CC1(C)Oc2ccsc2[C@@H](N2CCCCC2)[C@@H]1O : false (0)
9) CC(=O)c1cc2c(s1)[C@@H](N1CCCC1=O)[C@H](O)C(C)(C)O2 : true (1)
10) CC1(C)Oc2ccsc2[C@@H](N2CCCC2)[C@@H]1O : true (1)

meta.source: ChEMBL document CHEMBL1125368
